target: isomerase (Mus musculus (Mouse), UniProt Q91ZQ5); experiment: In vivo murine isomerase assay (recovery of 11-cis-retinal after photobleaching); design: species or system CD-1 (albino) male mice; conditions: mouse, po, 10 mg/kg oral gavage, 4 h; negative numbers leveled to 0%
Sequence (Q91ZQ5 whole entry): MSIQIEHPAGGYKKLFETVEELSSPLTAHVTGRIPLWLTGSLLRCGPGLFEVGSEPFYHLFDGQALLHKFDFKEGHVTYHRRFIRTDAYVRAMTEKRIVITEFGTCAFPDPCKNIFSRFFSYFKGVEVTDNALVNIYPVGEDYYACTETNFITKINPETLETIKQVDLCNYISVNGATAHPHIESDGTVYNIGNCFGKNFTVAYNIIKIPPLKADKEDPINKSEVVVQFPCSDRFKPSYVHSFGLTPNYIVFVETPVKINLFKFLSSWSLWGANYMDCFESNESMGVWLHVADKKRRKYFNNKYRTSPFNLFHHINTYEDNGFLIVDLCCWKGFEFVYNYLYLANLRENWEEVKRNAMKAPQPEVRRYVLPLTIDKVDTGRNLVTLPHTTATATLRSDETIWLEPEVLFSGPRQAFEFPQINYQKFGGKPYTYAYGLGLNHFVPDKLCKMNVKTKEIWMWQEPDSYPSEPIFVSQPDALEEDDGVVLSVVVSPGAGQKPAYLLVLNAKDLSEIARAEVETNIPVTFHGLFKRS
inhibition at 10 mg/kg reference
Write the value in % as a bare number.

Example cases with answers are listed next.
Cc1cc(C)cc(C=Cc2cccc(CCCN)c2)c1 (mixture of isomers)
2
CC1=C(/C=C/c2cccc(C(O)CCN)c2)C(C)(C)CCC1 (stereo not shown)
100
CNCCCc1cccc(/C=C/c2c(C)cccc2C)c1
36

query: What reported inhibition at 10 mg/kg corresponds to `CC1=C(/C=C/c2cccc(C#CCN)c2)C(C)(C)CCC1` on isomerase (Mus musculus (Mouse), UniProt Q91ZQ5)?
result: 75

----------
target: isomerase (Mus musculus (Mouse), UniProt Q91ZQ5); test: In vivo murine isomerase assay (recovery of 11-cis-retinal after photobleaching); parameters: species or system CD-1 (albino) male mice; conditions: mouse, po, 10 mg/kg oral gavage, 4 h; negative numbers leveled to 0%
inhibition at 10 mg/kg reference
Write the value in % as a bare number.

Cc1cccc(C)c1/C=C/c1cccc(CCCN)c1
80

query: If you can, please state the reported inhibition at 10 mg/kg value of CCc1cccc(C)c1C=Cc1cccc(CCCN)c1 (mixture of isomers) .
result: 52

query: Again, but for COc1ccccc1C=Cc1cccc(CCCN)c1 (mixture of isomers)
result: 76

query: Again, but for CC1=C(/C=C/c2cccc(CC(C)CN)c2)C(C)(C)CCC1 (stereo not shown)
result: 80

----------
inhibition at 1 mg/kg reference
target: isomerase (Mus musculus (Mouse)); assay: In vivo murine isomerase assay (recovery of 11-cis-retinal after photobleaching); parameters: species or system CD-1 (albino) male mice; conditions: mouse, po, 1 mg/Kg oral gavage, 6 h; negative numbers leveled to 0%
Mention the unit after the number when you answer.

Example cases with answers are listed next.
NC[C@@H](O)Cc1cccc(/C=C/c2c(Cl)cccc2Cl)c1 [Example 75]
20%
CC1=C(/C=C/c2cccc(C(O)C(C)CN)c2)C(C)(C)CCC1 (centres unmarked) [Example 59]
1%
CC1=C(/C=C/c2cccc(OCCN)c2)C(C)(C)CCC1 [Example 31]
2%

query: If you can, please state the reported inhibition at 1 mg/kg value of CC1=C(/C=C/c2cccc(C(=O)CCN)c2)C(C)(C)CCC1 [Example 56] .
result: 75%

query: Again, but for Cc1cccc(C)c1/C=C/c1cccc(CCCN)c1 [Example 1]
result: 0%

query: Again, but for NCCCc1cccc(/C=C/c2c(Cl)cccc2Cl)c1 [Example 43]
result: 7%

query: Again, but for NC[C@H](O)Cc1cccc(/C=C/c2c(Cl)cccc2Cl)c1 [Example 74]
result: 40%

query: Again, but for CC1=C(/C=C/c2cccc(C(N)CCN)c2)C(C)(C)CCC1 (centres unmarked) [Example 61]
result: 0%

----------
Target: UniProtKB Q91ZQ5
Assay: In vivo murine isomerase assay (recovery of 11-cis-retinal after photobleaching)
Set-up: species or system CD-1 (albino) male mice
Conditions: mouse, po, 1 mg/Kg oral gavage, 24 h; negative numbers leveled to 0%
Experimental: The capability of styrenyl derivatives to inhibit isomerase is determined by an in vivo murine isomerase assay. […] Retinoids were extracted from the eye and the regeneration of 11-cis-retinal was assessed at various time intervals. […] The area under the curve for 11-cis retinal oxime was calculated by Agilent Chemstation software and was recorded manually. […] Positive control mice (no compound administered) were sacrificed fully dark-adapted and the eye retinoids analyzed. […]
measured-endpoint: inhibition at 1 mg/kg
Mention the unit after the number when you answer.

Example cases with answers are listed next.
Cc1cccc(C)c1/C=C/c1cccc(CCCN)c1
0%
CC1=C(/C=C/c2cccc(C(=O)CCN)c2)C(C)(C)CCC1
77%
CCCC(O)(/C=C/c1cccc(CCCN)c1)CCC
0%
NC[C@@H](O)Cc1cccc(/C=C/c2c(Cl)cccc2Cl)c1
13%

Proceeding to the next molecule to report its inhibition at 1 mg/kg.
query: What reported inhibition at 1 mg/kg corresponds to `NC[C@H](O)Cc1cccc(/C=C/c2c(Cl)cccc2Cl)c1` on UniProtKB Q91ZQ5?
result: 9%
